The reported measurements were obtained from PubChem BioAssay (NCI).

Quick list: TGI per entry.
Test system: PC-3 prostate
Assay: NCI tumour cell line growth inhibition, 48 h

>  <molecule>
CCOC(=O)c1cc(C2(OC)CCN(Cc3ccccc3)C2=O)c(-c2cc(C)no2)[nH]1 (stereo not given)

>  <TGI>
> 100 µM

$$$$
>  <molecule>
O=C1/C(=C/c2cccc([N+](=O)[O-])c2)N=C(c2ccccc2)N1c1ccc2c(c1)Sc1cc(N3C(=O)/C(=C/c4cccc([N+](=O)[O-])c4)N=C3c3ccccc3)ccc1N2

>  <TGI>
52.8 µM

$$$$
>  <molecule>
Cc1ccc(OCCn2cc(Nc3ccccc3)c(=O)[nH]c2=O)cc1

>  <TGI>
> 100 µM

$$$$
>  <molecule>
N=C(N)c1ccc(-c2ccc(-c3ccc(C(=N)N)cc3)o2)cc1

>  <TGI>
> 100 µM

$$$$
>  <molecule>
Nc1nc(Cl)nc2c1ncn2C1CCC(CO)O1 (stereo not given)

>  <TGI>
> 100 µM

$$$$
